- Measured target: T1, tau peptide residues 416 to 430 of SEQ ID NO: 01 (human, also: biotinylated, site not given here)
- T1 construct: also called non-phosphorylated tau peptide
- T1 peptide: SIDMVDSPQLATLAD
- Method notes: ELISA
No end group written: not given here.
Value type: OD@1 µg/mL (OD)
Answer with a number only, understood to be in OD.

Below are worked cases with known answers.
| Binder | OD@1 µg/mL (OD) |
| --- | --- |
| VH35H5/VL49G1 (antibody, V domains shown, IgG captured via anti-human Fc; also called antibody 2) VH: EVQVLESGGGLVQPGGSLRLSCAVSGISLSSNAINWVRQAPGKGLEWVGYIAVSGNTYYASWAKGRFTISRDNSKNTVYLQMNSLRAEDTAVYYCGKSNIWGQGTLVTVSS VL: AQVMTQSPSSLSASVGDRVTITCRSSQSVRSNKLAWFQQKPGQPPKRLIYSASNLDYGVPSRFSGSGSGTEFTLTISSLQPEDFATYYCLGYFDSSADIVAFGGGTKVEIK | 1.42 |
| VH35H5/VL31A1 (antibody, V domains shown, IgG captured via anti-human Fc; also called antibody 1) VH: EVQVLESGGGLVQPGGSLRLSCAVSGISLSSNAINWVRQAPGKGLEWVGYIAVSGNTYYASWAKGRFTISRDNSKNTVYLQMNSLRAEDTAVYYCGKSNIWGQGTLVTVSS VL: AQVMTQSPSSLSASVGDRVTITCRSSQSVRNNKLAWFQQKPGQPPKRLIYSASDLDYGVPSRFSGSGSGTEFTLTISSLQPEDFATYYCLGYFDSSADIVAFGGGTKVEIK | 1.03 |
| VH76A6/VL35G4 (antibody, V domains shown, IgG captured via anti-human Fc) VH: EVQVLESGGGLVQPGGSLRLSCAVSGFSLSNSAINWVRQAPGKGLEWVGYIAVSGNTYYASWAKGRFTISRDNSKNTVYLQMNSLRAEDTAVYYCGKSNIWGQGTLVTVSS VL: AQVMTQSPSSLSASVGDRVTITCRSSQSVRTNKLAWFQQKPGQPPKRLIYSASTLDFGVPSRFSGSGSGTEFTLTISSLQPEDFATYYCAGYFEAPADIVAFGGGTKVEIK | 0.07 |
| VH76A6/VL145B12 (antibody, V domains shown, IgG captured via anti-human Fc) VH: EVQVLESGGGLVQPGGSLRLSCAVSGFSLSNSAINWVRQAPGKGLEWVGYIAVSGNTYYASWAKGRFTISRDNSKNTVYLQMNSLRAEDTAVYYCGKSNIWGQGTLVTVSS VL: AQVMTQSPSSLSASVGDRVTITCRSSQSVRSNKLAWFQQKPGQPPKRLIYAASNLDFGVPSRFSGSGSGTEFTLTISSLQPEDFATYYCLGYFDSSADIVAFGGGTKVEIK | 0.44 |

We next turn to a different binder, shown below.
Lab book: OD@1 µg/mL of VH32/VL4G1 (antibody, V domains shown) VH: EVQVLESGGGLVQPGGSLRLSCAVSGFSLSSNAINWVRQAPGKGLEWVGYIAVSGNTYYASWAKGRFTISRDNSKNTVYLQMNSLRAEDTAVYYCGKSNIWGQGTLVTVSS VL: AQVMTQSPSSLSASVGDRVTITCRSSQSVRTNKLAWFQQKPGQPPKRLIYSASTLDFGVPSRFSGSGSGTEFTLTISSLQPEDFATYYCLGYFDSPADIVAFGGGTKVEIK noted as 1.13
